# studySystem: EGFR V3 (Homo sapiens, UniProt P00533, DELINS30-297G)
# Construct: expressed in transfected cells; host or cells: BaF3 (murine pro-B), retroviral pMXs-IRES-Blasticidin
# Sequence (P00533 with tags, fused parts or gaps DELINS30-297G): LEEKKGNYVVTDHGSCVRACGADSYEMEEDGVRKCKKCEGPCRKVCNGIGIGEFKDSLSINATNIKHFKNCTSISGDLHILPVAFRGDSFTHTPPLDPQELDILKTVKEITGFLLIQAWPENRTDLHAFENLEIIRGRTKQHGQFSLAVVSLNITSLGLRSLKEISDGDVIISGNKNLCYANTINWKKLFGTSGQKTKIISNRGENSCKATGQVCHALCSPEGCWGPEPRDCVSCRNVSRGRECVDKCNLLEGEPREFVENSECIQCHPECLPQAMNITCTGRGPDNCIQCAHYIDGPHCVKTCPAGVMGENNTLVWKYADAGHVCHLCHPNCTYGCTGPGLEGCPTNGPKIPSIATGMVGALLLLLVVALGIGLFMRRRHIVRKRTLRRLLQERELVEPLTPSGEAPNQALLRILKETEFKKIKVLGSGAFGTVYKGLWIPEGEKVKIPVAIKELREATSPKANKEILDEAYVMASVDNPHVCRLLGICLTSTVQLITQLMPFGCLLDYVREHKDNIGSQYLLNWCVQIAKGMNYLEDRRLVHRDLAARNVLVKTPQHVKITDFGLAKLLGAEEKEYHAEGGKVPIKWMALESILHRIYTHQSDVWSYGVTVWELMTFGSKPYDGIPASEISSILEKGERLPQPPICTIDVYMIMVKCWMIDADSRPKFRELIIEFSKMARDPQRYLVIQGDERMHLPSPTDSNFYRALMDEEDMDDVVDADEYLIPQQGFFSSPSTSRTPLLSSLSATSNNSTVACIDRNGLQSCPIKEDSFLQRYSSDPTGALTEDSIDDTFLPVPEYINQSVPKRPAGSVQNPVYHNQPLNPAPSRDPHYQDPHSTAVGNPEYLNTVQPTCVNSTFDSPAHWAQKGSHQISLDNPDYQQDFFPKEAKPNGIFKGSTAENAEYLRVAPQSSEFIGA
# procedureSummary: Activity for inhibiting EGFR (Table A), EGFR V3 (EGFR-Viii)
# Assay type: cell-based
# conditionInfo: read-out: EGFR V3, potency code (IC50)
valueKind: IC50

Record excerpt, results attached:
C=CC(=O)Nc1cc2c(Nc3ccc(OCc4cccc(F)c4)c(Cl)c3)ncnc2cc1OCCN1CCOCC1
30 to 50 nM
C=CC(=O)Nc1cc2c(Nc3ccc(Oc4ccc(C)nc4)c(C)c3)ncnc2cc1C#CC(C)(C)N(C)C
300 to 500 nM
C=CC(=O)Nc1cc2c(Nc3ccc(OCc4cccc(C)n4)c(Cl)c3)ncnc2cc1OCCN1CCN(C)CC1
50 to 100 nM
C=CC(=O)Nc1cc2c(Nc3ccc(OCc4ccccn4)c(Cl)c3)ncnc2cc1OCCn1ccnc1
50 to 100 nM
C=CC(=O)Nc1cc2c(Nc3ccc(OCc4ccccn4)c(Cl)c3)ncnc2cc1OCCN1CC2(COC2)C1
30 to 50 nM
C=CC(=O)Nc1cc2c(Nc3ccc(OCc4cccnn4)c(Cl)c3)ncnc2cc1OCCN1CC(OC)C1
50 to 100 nM

// next item, IC50 requested
Form: Entry = CC#CC(=O)Nc1cc2c(Nc3cc(Cl)c(OCc4cccc(F)c4)cc3F)ncnc2cc1OCCN1CC(OC)C1 | System = EGFR V3 (Homo sapiens, UniProt P00533, DELINS30-297G) | IC50 = ____
30 to 50 nM

----------
# studySystem: HER2 S310F (Homo sapiens, UniProt P04626, S310F)
# Construct: expressed in transfected cells; host or cells: BaF3 (murine pro-B)
# Sequence (P04626 23-1255 S310F): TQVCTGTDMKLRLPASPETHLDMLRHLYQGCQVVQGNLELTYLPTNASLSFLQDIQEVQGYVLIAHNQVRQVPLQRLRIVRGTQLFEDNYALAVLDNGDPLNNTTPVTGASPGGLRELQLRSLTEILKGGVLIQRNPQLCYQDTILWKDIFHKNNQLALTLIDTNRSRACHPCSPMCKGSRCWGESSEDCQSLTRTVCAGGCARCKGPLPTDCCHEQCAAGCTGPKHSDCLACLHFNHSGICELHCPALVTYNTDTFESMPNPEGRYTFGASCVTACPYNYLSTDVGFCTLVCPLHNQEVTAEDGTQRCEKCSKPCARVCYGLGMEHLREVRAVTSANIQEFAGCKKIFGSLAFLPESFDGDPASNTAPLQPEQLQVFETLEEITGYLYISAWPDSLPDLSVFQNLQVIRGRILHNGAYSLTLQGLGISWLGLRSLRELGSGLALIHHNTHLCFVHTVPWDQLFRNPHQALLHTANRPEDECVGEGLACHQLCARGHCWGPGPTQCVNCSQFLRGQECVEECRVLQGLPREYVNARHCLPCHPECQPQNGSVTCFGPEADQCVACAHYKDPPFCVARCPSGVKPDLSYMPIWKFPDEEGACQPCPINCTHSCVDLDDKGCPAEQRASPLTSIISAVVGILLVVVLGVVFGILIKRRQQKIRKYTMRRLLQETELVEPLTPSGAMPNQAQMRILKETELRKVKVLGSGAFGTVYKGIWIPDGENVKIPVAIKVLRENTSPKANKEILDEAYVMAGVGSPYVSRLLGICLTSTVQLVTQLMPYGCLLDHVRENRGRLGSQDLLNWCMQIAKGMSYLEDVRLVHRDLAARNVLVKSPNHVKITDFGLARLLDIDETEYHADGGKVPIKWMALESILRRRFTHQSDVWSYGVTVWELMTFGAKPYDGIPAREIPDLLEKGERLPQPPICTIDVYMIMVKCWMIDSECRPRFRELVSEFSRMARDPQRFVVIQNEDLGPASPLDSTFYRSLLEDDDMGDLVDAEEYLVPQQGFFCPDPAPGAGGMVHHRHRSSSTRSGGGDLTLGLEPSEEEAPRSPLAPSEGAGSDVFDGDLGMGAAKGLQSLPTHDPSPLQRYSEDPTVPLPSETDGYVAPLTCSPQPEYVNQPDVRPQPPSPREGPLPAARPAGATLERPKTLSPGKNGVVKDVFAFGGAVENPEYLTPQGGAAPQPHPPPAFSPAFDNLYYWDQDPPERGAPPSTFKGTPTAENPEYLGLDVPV
# procedureSummary: BaF3 cell proliferation assay, HER2 S310F (Table B)
# Type: cell-based
# conditionInfo: potency code, 3 days, CellTiterGlo, read-out: HER2 S310F (Activity for Inhibiting HER2)
pIC50: −log10 of the molar value.
valueKind: pIC50

Record excerpt, results attached:
C=CC(=O)Nc1cc2c(Nc3ccc(OCc4ccccn4)c(Cl)c3)ncnc2cc1C#CC(C)(C)NC
7.70 to 8.00
C=CC(=O)Nc1cc2c(Nc3cc(Cl)c(OCc4ccccn4)cc3F)ncnc2cc1OCCN1CCOCC1
7.70 to 8.00

Which pIC50 reading was recorded for the compound C=CC(=O)Nc1cc2c(Nc3ccc(OCc4ccccn4)c(Cl)c3)ncnc2cc1OCC12CCC(CC1)N2C ?
6.70 to 7.00

Which pIC50 reading was recorded for the compound C=CC(=O)Nc1cc2c(Nc3ccc(OCc4ccccn4)c(Cl)c3)ncnc2cc1OCC1CCCN1C (stereo not shown) ?
7.00 to 7.30

----------
# studySystem: HER2 S310F (Homo sapiens, UniProt P04626, S310F)
# Construct: expressed in transfected cells; host or cells: BaF3 (murine pro-B)
# procedureSummary: Activity for inhibiting HER2 (Table B), HER2 S310F
# Type: cell-based
# conditionInfo: read-out: HER2 S310F, potency code (IC50)
pIC50: −log10 of the molar value.
valueKind: pIC50

C=CC(=O)Nc1cc2c(Nc3ccc(OCc4ccccn4)c(Cl)c3)ncnc2cc1OCCN1CCC(O)CC1 [compound 111]
7.30 to 7.52
C=CC(=O)Nc1cc2c(Nc3ccc(OCc4cccc(C)n4)c(Cl)c3)ncnc2cc1OCCN1CCN(C)CC1 [compound 137]
7.00 to 7.30
C=CC(=O)Nc1cc2c(Nc3ccc(OCc4ccccn4)c(Cl)c3)ncnc2cc1N1CCC(N(C)C)C1 (stereo not shown) [compound 64]
6.30 to 6.52
C=CC(=O)Nc1cc2c(Nc3ccc(OCc4ccccn4)c(Cl)c3)ncnc2cc1OCC(C)(C)N(C)C [compound 94]
7.30 to 7.52
C=CC(=O)Nc1cc2c(Nc3ccc(OCc4ccccn4)c(Cl)c3)ncnc2cc1OCCCN1CCOCC1 [compound 21]
8.00 to 8.30

Which pIC50 reading was recorded for the compound CC#CC(=O)Nc1cc2c(Nc3cc(Cl)c(OCc4cccc(F)c4)cc3F)ncnc2cc1OCCN1CCN(C)CC1 [compound 146] ?
7.52 to 7.70

Which pIC50 reading was recorded for the compound C=CC(=O)Nc1cc2c(Nc3ccc(OCc4ccncn4)c(Cl)c3)ncnc2cc1OCCCN1CCOCC1 [compound 163] ?
7.30 to 7.52

----------
# studySystem: HER2 S310F (Homo sapiens, UniProt P04626, S310F)
# Construct: expressed in transfected cells; host or cells: BaF3 (murine pro-B)
# procedureSummary: Activity for inhibiting HER2 (Table B), HER2 S310F
# Format: cell-based
# conditionInfo: read-out: HER2 S310F, potency code (IC50)
valueKind: IC50

Which IC50 reading was recorded for the molecule C=CC(=O)Nc1cc2c(Nc3ccc(OCc4cccc(F)c4)c(Cl)c3)ncnc2cc1OCCN1CC(OC)C1 [compound 143] ?
30 to 50 nM

Which IC50 reading was recorded for the molecule C=CC(=O)Nc1cc2c(Nc3ccc(CC(=O)c4ccccn4)c(Cl)c3)ncnc2cc1O[C@@H]1CCN(C)C1 [compound 121] ?
30 to 50 nM

Which IC50 reading was recorded for the molecule C=CC(=O)Nc1cc2c(Nc3ccc(OCc4ccccn4)c(Cl)c3)ncnc2cc1OCCC1COCCN1C (stereo not shown) [compound 120] ?
10 to 20 nM

Which IC50 reading was recorded for the molecule CC#CC(=O)Nc1cc2c(Nc3ccc(OCc4ccncn4)c(Cl)c3)ncnc2cc1OCCCN1CCOCC1 [compound 164] ?
30 to 50 nM

Which IC50 reading was recorded for the molecule C=CC(=O)Nc1cc2c(Nc3ccc(Oc4ccc(Cl)c(F)c4)cc3)ncnc2cc1OCCN1CCOCC1 [compound 127] ?
300 to 500 nM

Which IC50 reading was recorded for the molecule C=CC(=O)Nc1cc2c(Nc3ccc(OCc4ccccn4)nc3)ncnc2cc1OCCN1CCOCC1 [compound 71] ?
200 to 300 nM

Which IC50 reading was recorded for the molecule C=CC(=O)Nc1cc2c(Nc3ccc(OCc4ccccn4)c(Cl)c3)ncnc2cc1OC[C@H]1CCN(C)C1 [compound 101] ?
10 to 20 nM

----------
# studySystem: HER2 S310F (Homo sapiens, UniProt P04626, S310F)
# Construct: expressed in transfected cells; host or cells: BaF3 (murine pro-B)
# procedureSummary: BaF3 cell proliferation assay, HER2 S310F (Table B)
# Format: cell-based
# conditionInfo: potency code, 3 days, CellTiterGlo, read-out: HER2 S310F (Activity for Inhibiting HER2)
pIC50: −log10 of the molar value.
valueKind: pIC50

Record excerpt, results attached:
C=CC(=O)Nc1cc2c(Nc3ccc(OCc4ccccn4)c(Cl)c3)ncnc2cc1OCC1CCN1C (stereo not shown) [compound 116]
7.30 to 7.52
C=CC(=O)Nc1cc2c(Nc3ccc(OCc4ccccn4)c(Cl)c3)ncnc2cc1O[C@H]1CCCN(C)CC1 [compound 99]
7.30 to 7.52
CC#CC(=O)Nc1cc2c(Nc3ccc(OCc4ccccn4)c(Cl)c3)ncnc2cc1OCCN1CCOCC1 [compound 5]
> 8.30
C=CC(=O)Nc1cc2c(Nc3ccc(OCc4cccc(F)c4)c(Cl)c3)ncnc2cc1OCCCN1C[C@H]2C[C@@H]1CO2 [compound 160]
6.70 to 7.00
C=CC(=O)Nc1cc2c(Nc3ccc(OCc4cccc(F)n4)c(Cl)c3)ncnc2cc1OCCCN1C[C@H]2C[C@@H]1CO2 [compound 162]
7.30 to 7.52
C=CC(=O)Nc1cc2c(Nc3ccc(OCc4ccccn4)c(Cl)c3)ncnc2cc1C#C[C@H]1CCN(C)C1 [compound 85]
8.00 to 8.30

Which pIC50 reading was recorded for the molecule C=CC(=O)Nc1cc2c(Nc3ccc(OCc4ccccn4)c(Cl)c3)ncnc2cc1OCCN1CCC(O)CC1 [compound 111] ?
7.30 to 7.52

----------
pIC50 listing for selected compounds.
# studySystem: HER2 S310F (Homo sapiens, UniProt P04626, S310F)
# Construct: expressed in transfected cells; host or cells: BaF3 (murine pro-B)
# procedureSummary: Activity for inhibiting HER2 (Table B), HER2 S310F
# Assay type: cell-based
# conditionInfo: read-out: HER2 S310F, potency code (IC50)
pIC50: −log10 of the molar value.

C=CC(=O)Nc1cc2c(Nc3ccc(OCc4ccccn4)c(Cl)c3)ncnc2cc1O[C@H]1CCCN(C)CC1
7.30 to 7.52
COC/C=C/C(=O)Nc1cc2c(Nc3ccc(OCc4ccccn4)c(Cl)c3)ncnc2cc1OCCN1CCOCC1
6.30 to 6.52
C=CC(=O)Nc1cc2c(Nc3ccc(OCc4ccccn4)c(Cl)c3)ncnc2cc1OCCN1CCS(=O)(=O)CC1
6.70 to 7.00

Form: Entry = C=CC(=O)Nc1cc2c(Nc3ccc(OCc4ccccn4)c(Cl)c3)ncnc2cc1OCCCN1CC2CC1CO2 (stereo not shown) | System = HER2 S310F (Homo sapiens, UniProt P04626, S310F) | pIC50 = ____
7.70 to 8.00

Form: Entry = C=CC(=O)Nc1cc2c(Nc3ccc(OCc4ccccn4)cn3)ncnc2cc1OCCN1CCOCC1 | System = HER2 S310F (Homo sapiens, UniProt P04626, S310F) | pIC50 = ____
6.30 to 6.52

Form: Entry = C=CC(=O)Nc1cc2c(Nc3ccc(OCc4ccccn4)c(Cl)c3)ncnc2cc1OCCN1CC2COCC2C1 (stereo not shown) | System = HER2 S310F (Homo sapiens, UniProt P04626, S310F) | pIC50 = ____
7.70 to 8.00

Form: Entry = C=CC(=O)Nc1cc2c(Nc3ccc(OCc4cccc(F)n4)c(Cl)c3)ncnc2cc1OCCCN1CC(OC)C1 | System = HER2 S310F (Homo sapiens, UniProt P04626, S310F) | pIC50 = ____
7.70 to 8.00
